# assayed_target: Amyloid-beta precursor protein (Homo sapiens, UniProt P05067)
# Sequence (P05067 whole entry): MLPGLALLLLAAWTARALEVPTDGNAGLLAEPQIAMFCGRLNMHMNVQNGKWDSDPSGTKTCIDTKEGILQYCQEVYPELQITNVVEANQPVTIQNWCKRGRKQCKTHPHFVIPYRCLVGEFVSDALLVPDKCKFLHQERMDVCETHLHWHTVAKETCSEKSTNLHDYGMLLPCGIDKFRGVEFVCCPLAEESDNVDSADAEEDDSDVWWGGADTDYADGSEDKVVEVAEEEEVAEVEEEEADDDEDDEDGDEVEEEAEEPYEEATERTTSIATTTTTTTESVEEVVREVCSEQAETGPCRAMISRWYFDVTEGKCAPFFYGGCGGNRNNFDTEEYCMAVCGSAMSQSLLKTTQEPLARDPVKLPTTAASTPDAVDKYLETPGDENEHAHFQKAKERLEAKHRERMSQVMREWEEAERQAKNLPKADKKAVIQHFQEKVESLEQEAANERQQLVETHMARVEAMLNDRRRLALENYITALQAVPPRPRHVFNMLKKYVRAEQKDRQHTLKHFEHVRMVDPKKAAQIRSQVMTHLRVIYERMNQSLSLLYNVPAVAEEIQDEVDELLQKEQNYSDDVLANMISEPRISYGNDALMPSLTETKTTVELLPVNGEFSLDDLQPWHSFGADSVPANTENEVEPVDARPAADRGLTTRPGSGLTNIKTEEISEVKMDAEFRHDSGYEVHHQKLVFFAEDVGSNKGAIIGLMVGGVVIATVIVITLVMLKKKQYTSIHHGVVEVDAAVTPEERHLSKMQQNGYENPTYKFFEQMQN
# test_method_notes: Inhibition of self-induced amyloid beta (1 to 42) (unknown origin) aggregation by Thioflavin T based fluorometric assay
value_type: pIC50
In textbook form, pIC50 equals minus log to base ten of the concentration in mol/L.

Task: Entry O=c1cc(/N=N/N=P(CCP(=N/N=N/c2cc(=O)oc3ccccc23)(c2ccccc2)c2ccccc2)(c2ccccc2)c2ccccc2)c2ccccc2o1 : reported pIC50 = ?
Output: 3.47

* * *

# assayed_target: Cholinesterase (Equus caballus, UniProt P81908)
# Sequence (P81908 whole entry): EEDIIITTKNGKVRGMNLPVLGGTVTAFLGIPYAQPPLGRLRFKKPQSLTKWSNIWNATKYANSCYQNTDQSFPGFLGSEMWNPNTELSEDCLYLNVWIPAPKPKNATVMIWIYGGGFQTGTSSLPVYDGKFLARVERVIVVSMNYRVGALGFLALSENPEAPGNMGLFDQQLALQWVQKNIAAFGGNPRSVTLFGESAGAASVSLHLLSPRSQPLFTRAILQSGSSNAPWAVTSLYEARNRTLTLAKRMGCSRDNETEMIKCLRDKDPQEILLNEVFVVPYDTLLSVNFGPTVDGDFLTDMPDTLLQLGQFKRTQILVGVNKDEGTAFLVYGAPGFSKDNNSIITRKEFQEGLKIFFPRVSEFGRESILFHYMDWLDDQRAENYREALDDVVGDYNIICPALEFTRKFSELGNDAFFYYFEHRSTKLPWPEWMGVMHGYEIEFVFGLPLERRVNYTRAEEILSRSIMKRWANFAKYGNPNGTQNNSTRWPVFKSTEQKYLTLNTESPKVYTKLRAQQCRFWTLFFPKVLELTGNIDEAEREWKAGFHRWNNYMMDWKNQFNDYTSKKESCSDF
# test_method_notes: Inhibition of equine serum BuChE using butyrylthiocholine iodide as substrate preincubated for 5 mins followed by substrate addition and measured for 2 mins by spectrophotometric based Ellman's method
value_type: IC50 (µM)
Kindly provide the numeric value in µM only, without the unit symbol.

Task: Entry c1ccc(C[n+]2ccc(-c3nc4ccccc4s3)cc2)cc1 : reported IC50 = ?
Output: 0.182
